B1: Twister Ribozyme (parent)
chain: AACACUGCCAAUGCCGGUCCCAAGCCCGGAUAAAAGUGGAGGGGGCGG

variants of: B1; experiment: self-cleavage, relative activity (ratio to wild type); higher = more cleavage; co-transcriptional
Rule: self-cleavage of 0.2 or more gives fulfilled; anything lower gives not fulfilled.

alteration="A1U C21U" assigned_label="not fulfilled"
alteration="G17A G41U" assigned_label="not fulfilled"
alteration="A10U A22G" assigned_label=fulfilled
alteration="C3U U31A" assigned_label=fulfilled
alteration="A2C C46G" assigned_label="not fulfilled"
alteration="A34C A35C" assigned_label=fulfilled
alteration="G16A C19U" assigned_label=fulfilled
alteration="U18A A22U" assigned_label="not fulfilled"
alteration="C8G G44A" assigned_label=fulfilled
alteration="U18A A35U" assigned_label=fulfilled
alteration="A32U A40U" assigned_label="not fulfilled"
alteration="C3U C5G" assigned_label="not fulfilled"
alteration="C14A C26A" assigned_label=fulfilled
alteration="A1G G47C" assigned_label=fulfilled
alteration="U12C C25U" assigned_label=fulfilled
alteration="C14G G47C" assigned_label="not fulfilled"
alteration="U18C G36C" assigned_label="not fulfilled"
alteration="A11U C46U" assigned_label=fulfilled
alteration="C3U G47A" assigned_label=fulfilled
alteration="C25U A32U" assigned_label=fulfilled
alteration="A22U G36A" assigned_label="not fulfilled"
alteration="G16C U37G" assigned_label="not fulfilled"
